Each recorded value in this set is attributed to the supplement of paper PMC9170038.

Tested on: MS2 coat protein
Test: apparent KD of MS2 coat protein, switch OFF state (with FMN for OFF switches, without FMN for ON switches); designed switch direction (-1 OFF switch, 1 ON switch): -1; higher = weaker reporter binding
Conditions: FMN input: 0 or 200 uM; Eterna round: R93 (includes R88 designs)
Entries and their measured apparent KD of MS2 coat protein follow.

{"Residue sequence": "GGAAAACAUGAGGAUCACCCAUGUAAGGAUAUGCUAGGGAAGGAAAAAAACCCACCAGGCAGAAGGUACUAAAG [Janelle Amethyst 18 Mod 5 - Jieux - Exclusion 1]", "apparent KD of MS2 coat protein, nM": 41.4}
{"Residue sequence": "ACCUUACAUGAGGAUCACCCAUGUUAGGAUAUCUCGCUUUCGCAAUCACAGCGCAAGCAGAGAAGGGACACGGG [Esceari]", "apparent KD of MS2 coat protein, nM": 66.6}
{"Residue sequence": "AACAAGUGAGGAUAUCGGAAAAGAAAAUAAGAUACACAAAACGAGAAGGCACAUGAGGAUCACCCAUGUAAAUA [JR_Exc004_Sub012]", "apparent KD of MS2 coat protein, nM": 41.5}
{"Residue sequence": "AGAGAGUCAGGAUAUACGAAAGAAAAGGGAAACAACAAGGGACAUGAGGAUCACCCAUGUAGAAGGGACGAGAA [Diamond 99]", "apparent KD of MS2 coat protein, nM": 49.8}
{"Residue sequence": "AAAAAGUAAGGAUAUGCGAAUAAAUAAGAAGAAGAAAGAAAGCAGAAGGUACAUGAGGAUCACCCAUGUAAAAA [Ex 4 Tesla 1]", "apparent KD of MS2 coat protein, nM": 22.5}
{"Residue sequence": "AACAAGACAGGAUAUACAUGAGGAUCACCCAUGUGAGAAUAAAGUAGCGUAACACAAAGUAGAAGGGUCAUGGA [Ruby 7]", "apparent KD of MS2 coat protein, nM": 57.6}

###

System: MS2 coat protein
Assay: apparent KD of MS2 coat protein; designed switch direction (-1 OFF switch, 1 ON switch): -1; higher = weaker reporter binding
Conditions: Eterna round: R95; input ligand: microRNA oligo, concentration not stated

{"Residue sequence": "GACUGCUGAGGAUAUACAUGAGGAUCACCCAUGUGCUUCAGCUACGAGAGUAGCAUUGGUAGAAGGUAGUAGUC [LRO-Excl3-04] (puzzle: Exclusion 3)", "Units symbol": "µM", "apparent KD of MS2 coat protein": 0.0111}
{"Residue sequence": "AGUACUAACACGGUUGUGUUAGUACAAUAAGCUUGUGAAACAUGAGGAUCACCCAUGUCCUCAUAAGCUCGUCUUAU [salish99_TOv2_r3_070] (puzzle: Sensor v3, turn-off variant 2)", "Units symbol": "µM", "apparent KD of MS2 coat protein": 0.954}
{"Residue sequence": "AAAAUGUAAGGAUAUGGCCGGGACCCAGGGUUUGGACCCGGCUAGAAGGUACAUGAGGAUCACCCAUGUAAGAA [Excls4-VIII] (puzzle: Exclusion 4)", "Units symbol": "µM", "apparent KD of MS2 coat protein": 0.0161}
{"Residue sequence": "AGUAACAGAGGAUAUACUAUUUUAUGUGUUUAUUAUUUUGAACAUGAGGAUCACCCAUGUAGAAGGCUGAAUAA [JMF 91] (puzzle: Exclusion 2)", "Units symbol": "µM", "apparent KD of MS2 coat protein": 0.0272}
{"Residue sequence": "GGCAAUAUGUAGGAUAUCGUAUUGGAAACAAUACGAGAAGGGCAAACAUGAGGAUCACCCAUGUUCCUUAAGCC [Mat - Exclusion 6 - Eli Mod - D68] (puzzle: Exclusion 6)", "Units symbol": "µM", "apparent KD of MS2 coat protein": 0.0176}
